Tested on: SK-MEL-28 melanoma
test_method_notes: NCI-60 one-dose screen, 48 h
experimental_context: 10 µM unless noted
Compounds without any hit were thinned out: in the full panel of roughly 83,000, 20% have a hit. Calls of active or inactive are those of the source. The calls were made as follows: active = growth percent below 10; inactive = the rest.
Outcome codes: YES (active), NO (inactive)

>>> classification("CN(C)CCNc1nc2ccccc2c2c(=O)c3ccccc3sc12")
"YES"
>>> classification("C[C@@H]1CC2C3C[C@H](F)C4=CC(=O)C=C[C@]4(C)[C@@]3(F)[C@@H](O)C[C@]2(C)[C@@]1(O)C(=O)CO (some centres not stated)")
"NO"
>>> classification("Nc1nc(Cl)c2c(C(F)(F)F)cn(CC3CCNCC3)c2n1")
"NO"
>>> classification("O=C(Nc1ccc(-n2cc(-c3ccncc3)c(-c3ccc(O)c(Cl)c3)n2)cc1)c1cc(Cl)cc(Cl)c1")
"NO"
>>> classification("COc1ccc(-c2nnc(SCC(=O)Nc3ccc(C(=O)/C=C/c4ccc(Cl)cc4)cc3)o2)cc1OC")
"NO"
>>> classification("CO[C@H]1/C=C/C=C/C=C/C[C@H](OC(=O)[C@@H](C)NC(=O)C2CCCCC2)[C@H](C)[C@@H](O)/C(C)=C\\CCC2=CC(=O)C=C(NC(=O)C1)C2=O")
"YES"
>>> classification("CCC1S/C(=N\\N=C(/C)c2cc3ccccc3o2)N(c2ccccc2)C1=O (configuration not stated)")
"NO"
>>> classification("CC12CCC3C(CCC4CC(O)CCC43C)C1C/C(=C/O)C(=O)O2 (configuration not stated)")
"NO"
>>> classification("Cc1nc(N)nc(SCc2ccccc2)c1Br")
"NO"
>>> classification("CC(C)CNCC(=O)Nc1ccc(Cc2ccc(NC(=O)CNCC(C)C)cc2)cc1")
"NO"
>>> classification("COc1cc(NC(C)CCCN2C(=O)c3ccccc3C2=O)c2ncccc2c1OC (configuration not stated)")
"NO"
>>> classification("COc1ccc(-c2nn(-c3ccc(NC(=O)c4ccc(Cl)c(C(F)(F)F)c4)cc3)cc2-c2ccncc2)cc1Cl")
"NO"

* * *

Tested on: UACC-62 melanoma
test_method_notes: NCI-60 one-dose screen, 48 h (100 = growth as untreated, 0 = no growth, -100 = all killed)
experimental_context: 10 µM unless noted
Procedure: Growth inhibition of the UACC-62 human tumor cell line is measured as a screen for anti-cancer activity. Cells are grown in 96 well plates and exposed to the test compound for 48 hours. Compounds are tested at a single concentration, which is 10^-5 M for most compounds. The reported endpoint is percent growth (GI% or GIPRCNT), where numbers from 0 - 100% represent growth inhibition, and numbers from -100% - 0 represent cell death. For example, a value of 40 represents 60% growth inhibition. […]
About 83,000 compounds went through this panel and 20% of them were active in at least one assay; those are over-represented in the sample as a whole.
# growth per entry
readout_kind: growth (%)

>>> endpoint_value("CCCCOc1nc2ccc(Cl)cc2cc1/C=C/C(=O)/C=C/c1ccc(OC)cc1")
78.9
>>> endpoint_value("Nc1nc(-c2cc3c(cc2Cl)NC(=O)/C3=C/c2ccc(Cl)cc2)cs1")
36
>>> endpoint_value("O=C1C(Cl)=C(Nc2ccccc2)C(=O)C(Cl)=C1Nc1ccccc1")
111
>>> endpoint_value("[2H]c1nc(Nc2ncc(F)c(-c3cc(F)c4nc(C)n(C(C)C)c4c3)n2)c([2H])c([2H])c1CN1CCN(CC)CC1")
62.5
>>> endpoint_value("O=C1COc2ccccc2C(=O)N1CCCCN1CCCCC1")
91.6
>>> endpoint_value("COc1cc2c(cc1OC)-c1c(oc3c4c(ccc3c1=O)OC(C)(C)C=C4)CO2")
61.1

* * *

Test system: CCRF-CEM leukemia
test_method_notes: NCI-60 one-dose screen, 48 h (100 = growth as untreated, 0 = no growth, -100 = all killed)
experimental_context: 10 µM unless noted
Experimental: Growth inhibition of the CCRF-CEM human tumor cell line is measured as a screen for anti-cancer activity. Cells are grown in 96 well plates and exposed to the test compound for 48 hours. Compounds are tested at a single concentration, which is 10^-5 M for most compounds. The reported endpoint is percent growth (GI% or GIPRCNT), where numbers from 0 - 100% represent growth inhibition, and numbers from -100% - 0 represent cell death. For example, a value of 40 represents 60% growth inhibition. […]
This is part of a sample that, as a whole, favours compounds with a hit. Of some 83,000 tested, about 20% had one in any assay.
readout_kind: growth (%)

>>> endpoint_value("Cc1ccc(-c2cc(-c3nnc(SCC(=O)c4ccccc4)o3)c3ccccc3n2)cc1")
100
>>> endpoint_value("COc1ccccc1P(c1ccccc1OC)c1ccccc1OC")
130
>>> endpoint_value("CCN(CC)CCC(C(=O)O)(c1ccccc1)c1ccccc1")
96.6
>>> endpoint_value("CCCCCn1ncc(-c2c(O)c(O)cc3c(O)c(-c4c(C)cc5c(-c6cnn(CCCCC)n6)c(O)c(O)cc5c4O)c(C)cc23)n1")
1.09
>>> endpoint_value("C[C@H]1C=C(C[C@@H](O)CCCCCCCCCC[C@@H](O)[C@H]2CCC(=O)O2)C(=O)O1")
78.5
>>> endpoint_value("O=C(Nc1ccc(-n2ccc3c(NC(=O)c4ccccc4)ncnc32)cc1)Nc1ccc(Cl)c(Cl)c1")
-10.2
>>> endpoint_value("O=C(Nc1ccc(-n2ccc3c(NC(=O)c4ccccc4)ncnc32)cc1)c1cccc(C(F)(F)F)c1")
28.2
>>> endpoint_value("O=C(O)c1ccc(-n2cc(/C=N/Nc3ccc(Cl)cc3)c(-c3ccc(F)c(F)c3)n2)cc1")
32.3
>>> endpoint_value("COc1ccc(-c2nn(-c3ccc(NC(=O)Nc4cc(C(F)(F)F)cc(C(F)(F)F)c4)cc3)cc2-c2ccncc2)cc1Cl")
9.25
>>> endpoint_value("CCN(CC)CCNc1ccc([N+](=O)[O-])c2sc3cc(Cl)ccc3c(=O)c12")
12.9
>>> endpoint_value("CC(C)(c1ccc(OCC(O)CNCc2ccco2)cc1)c1ccc(OCC(O)CNCc2ccco2)cc1 (configuration not stated)")
72.9
>>> endpoint_value("O=C(Nc1cccc(-n2ccc3c(NC(=O)c4ccccc4)ncnc32)c1)Nc1ccc(Cl)c(C(F)(F)F)c1")
16.4

* * *

System: UACC-257 melanoma
test_method_notes: NCI-60 one-dose screen, 48 h (100 = growth as untreated, 0 = no growth, -100 = all killed)
experimental_context: 10 µM unless noted
The panel holds about 83,000 compounds, 20% with a hit somewhere; the sample as a whole holds those more often.
readout_kind: growth (%)

>>> endpoint_value("CCNC(=O)Oc1ccc(/C(=C(/CC)Cc2ccccc2)c2ccc(OCCN3CCOCC3)cc2)cc1")
79.4
>>> endpoint_value("Nc1nc(-c2cc3c(cc2Cl)NC(=O)/C3=C/c2ccccc2)cs1")
80.1
>>> endpoint_value("O=C(Nc1ccc(F)cc1)Nc1ccc(Cl)c([N+](=O)[O-])c1")
34.9
>>> endpoint_value("COc1ccc(C(=O)NC(=O)Nc2ccc3c(c2)NC(=O)/C3=C\\c2[nH]c(C)c(C(=O)O)c2C)c(F)c1")
47.2
>>> endpoint_value("Cc1nccc2c3ccc(OCc4cn(-c5ccc(Br)cc5)nn4)cc3n(CCCc3ccccc3)c12")
-20
>>> endpoint_value("O=C1c2ccccc2OC=C(c2ccccc2)N1CCCCNc1ccc(F)cc1")
83.6
>>> endpoint_value("FC(F)(F)c1cn(CCN2CCOCC2)c2ncnc(Cl)c12")
84
>>> endpoint_value("CC(C)(C)OC(=O)NCc1cccc(N=C=S)c1")
39.4
>>> endpoint_value("O=[N+]([O-])c1cccc(C2c3ccccc3Oc3ccccc32)c1")
104

* * *

System: SF-268 CNS
test_method_notes: NCI-60 one-dose screen, 48 h (100 = growth as untreated, 0 = no growth, -100 = all killed)
experimental_context: 10 µM unless noted
Compounds without any hit were thinned out: in the full panel of roughly 83,000, 20% have a hit.
readout_kind: growth (%)

>>> endpoint_value("Cc1cccc[n+]1CCC[n+]1ccccc1C")
107
>>> endpoint_value("O=C(Nc1ccccc1Cl)c1c[nH]c(=O)c(-c2ccc(N3CCCOC4(CC4)C3)cc2)c1")
69.8
>>> endpoint_value("COc1ccc(Cl)cc1NC(=O)c1cc2c(n1C)-c1nc(NC(=O)C(C)C)sc1CC2")
71.2
>>> endpoint_value("CC(Cl)(CCl)CS(=O)(=O)c1ccc(Cl)cc1 (stereo unspecified)")
101
>>> endpoint_value("[2H]c1nc(Nc2ncc(F)c(-c3cc(F)c4nc(C)n(C(C)C)c4c3)n2)c([2H])c([2H])c1CN1CCN(CC)CC1")
54
>>> endpoint_value("COc1ccc(/C=C/C(=O)c2ccc(-n3cc(CN4CCN(c5cc6c(cc5F)c(=O)c(C(=O)O)cn6C5CC5)CC4)nn3)cc2)cc1OC")
59.5
>>> endpoint_value("COc1ccccc1P(c1ccccc1OC)c1ccccc1OC")
109
>>> endpoint_value("C=CCn1c(SCC(=O)Nc2ccc(/C(C)=N\\O)cc2)nnc1-c1cc(-c2ccc(OC)cc2)nc2ccccc12")
51.5
>>> endpoint_value("COc1cc(/C=C/C(=O)c2ccc(Oc3ncnc4ccccc34)cc2)cc(OC)c1OC")
81.1
>>> endpoint_value("OCc1cn(-c2ccc(Cl)cc2)nc1-c1ccc(O)cc1")
78.6
>>> endpoint_value("Cc1c(NC(=O)c2sc3nc4c(cc3c2N)CN(Cc2ccccc2)CC4)cccc1C(F)(F)F")
65.6
>>> endpoint_value("Nc1c(C(=O)O)[nH]c(=O)[nH]c1=O")
98.7
>>> endpoint_value("C#C[C@@]1(O)[C@@H](CO)O[C@@H](n2cc(C(F)(F)F)c3c(N)ncnc32)[C@@H]1O")
11.9
>>> endpoint_value("C#C[C@@]1(O)[C@@H](CO)O[C@@H](n2cc(Br)c3c(Cl)ccnc32)[C@@H]1O")
61.7
>>> endpoint_value("C#CCn1c(-c2cc(OC)c(OC)cc2Br)nc(-c2ccccc2)c1-c1ccccc1")
70
>>> endpoint_value("CCC1S/C(=N\\N=C(/C)c2ccco2)N(c2ccccc2)C1=O (stereo unspecified)")
100
>>> endpoint_value("CCn1c(C)nc([N+](=O)[O-])c1Sc1nc(N)nc2nc[nH]c12")
31.3
>>> endpoint_value("CCOC(=O)n1cnc2c(Cl)ncnc21")
111
>>> endpoint_value("Nn1c(SCC(=O)Nc2cc(Cl)c(Cl)cc2Cl)nnc1-c1cc(F)c(Cl)cc1Cl")
110
>>> endpoint_value("COc1ccc(-c2coc3c(CO)c(O)ccc3c2=O)cc1")
22.2
>>> endpoint_value("O=S(c1ccccc1)c1ccc2nnnn2n1 (stereo unspecified)")
97.1
>>> endpoint_value("O=[N+]([O-])c1cccc(C(c2ccccc2)c2ccccc2)c1")
99.8
>>> endpoint_value("CCc1c2cc(Cl)ccc2n2cc(Cc3ccccc3)[nH]c(=O)c12")
95.4
>>> endpoint_value("Fc1ccc(Nc2ncnc3ccc(-c4cn[nH]c4)cc23)cc1Cl")
59.6
>>> endpoint_value("COc1cc(-c2nc3ccccc3s2)ccc1OCc1nc2n(n1)S(=O)(=O)c1ccccc1N2c1ccccc1")
102
>>> endpoint_value("COc1ccc(/C(=C/c2cc(OC)c(OC)c(OC)c2)[N+](=O)[O-])cc1")
17.6
